- System name: T1, rat calcitonin receptor (rat, UniProt P32214 25-516)
- T1 construct: whole, on cells; Used as membranes prepared from BHK tk'ts 13 cells transiently transfected with the rat calcitonin receptor (Assay VIII); also called rCTR; rat calcitonin (a) receptor
- T1 sequence (looked up): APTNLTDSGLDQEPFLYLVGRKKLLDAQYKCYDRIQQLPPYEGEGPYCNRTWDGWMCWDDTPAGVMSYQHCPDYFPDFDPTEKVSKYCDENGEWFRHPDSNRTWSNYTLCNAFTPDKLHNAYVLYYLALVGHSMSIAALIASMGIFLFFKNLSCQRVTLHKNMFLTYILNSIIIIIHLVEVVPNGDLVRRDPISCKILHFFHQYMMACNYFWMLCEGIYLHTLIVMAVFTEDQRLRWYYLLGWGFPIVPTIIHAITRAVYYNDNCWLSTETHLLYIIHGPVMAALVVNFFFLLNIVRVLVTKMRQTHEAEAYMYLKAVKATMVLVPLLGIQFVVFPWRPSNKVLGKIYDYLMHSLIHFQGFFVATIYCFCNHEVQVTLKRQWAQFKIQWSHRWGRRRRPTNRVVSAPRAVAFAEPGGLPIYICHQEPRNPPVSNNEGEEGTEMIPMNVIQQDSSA
- Assay overview: SPA competition with 125I-calcitonin, membranes of BHK cells with rat CTR (Assay VIII)
Numbered stars: 1 amine (or outer) side, 2 acyl side, 3 side chain; on linkers, the order of the positions; unused ones are H or OH. Bridge positions count the residues as written; N and C are the ends. Side chains are listed from the residue outwards. Ends that are not written are not given here. * marks the point of attachment. C20 diacid = O=C(O)CCCCCCCCCCCCCCCCCCC(=O)*; γGlu = O=C(O)[C@H](CCC(=O)[*:2])N[*:1]; AEEA = NCCOCCOCC(=O)O
Measured quantity: pIC50
Lab note — pIC50 values are minus log10 of concentrations in M.

Problem: Could you tell me which pIC50 is on file for K([AEEA-γGlu-C20 diacid])CNTATCATQRLANFLRHSSPNFGAIPPSTPVGSNTY-NH2 (disulfide 2-7, Analogue of human amylin; also called compound 53) ?
Result: 7.96
